Entry source: patent US20210155689A1

Kindly supply the reported IL-2 production, SEB-dependent PBMC stimulation test, 0.016 ug/ml, N = 1 values for the records listed here.
- MEASUREMENT_TARGET: T1, human LAG-3 on cells (HEK293-hLAG-3 stable cell line) (human, UniProt P18627 23-525)
- T1 sequence: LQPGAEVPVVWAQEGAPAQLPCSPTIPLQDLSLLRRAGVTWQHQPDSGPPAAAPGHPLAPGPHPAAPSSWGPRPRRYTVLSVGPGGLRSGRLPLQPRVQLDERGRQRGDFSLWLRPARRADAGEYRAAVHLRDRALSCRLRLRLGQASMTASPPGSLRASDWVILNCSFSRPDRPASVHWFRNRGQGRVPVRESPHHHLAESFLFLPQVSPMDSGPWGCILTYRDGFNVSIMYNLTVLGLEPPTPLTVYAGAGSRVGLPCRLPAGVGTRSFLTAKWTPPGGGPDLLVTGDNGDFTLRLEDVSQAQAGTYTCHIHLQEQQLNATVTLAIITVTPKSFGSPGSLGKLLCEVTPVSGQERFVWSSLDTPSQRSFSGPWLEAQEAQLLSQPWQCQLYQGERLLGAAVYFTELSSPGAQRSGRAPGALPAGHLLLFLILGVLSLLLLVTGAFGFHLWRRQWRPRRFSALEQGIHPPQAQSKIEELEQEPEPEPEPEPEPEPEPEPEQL
- ASSAY_OVERVIEW: cell-based or functional assay
Answers are plain numbers, in pg/mL.

Hey, can you go through the list below and give me IL-2 production, SEB-dependent PBMC stimulation test, 0.016 ug/ml, N = 1 for every item?
1. 409B11E12 mouse-human chimeric antibody (antibody, V domains shown, also called mAb104-409B11E12) VH: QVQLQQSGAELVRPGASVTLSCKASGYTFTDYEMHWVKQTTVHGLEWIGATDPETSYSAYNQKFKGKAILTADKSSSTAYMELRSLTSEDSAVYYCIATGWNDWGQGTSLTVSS VL: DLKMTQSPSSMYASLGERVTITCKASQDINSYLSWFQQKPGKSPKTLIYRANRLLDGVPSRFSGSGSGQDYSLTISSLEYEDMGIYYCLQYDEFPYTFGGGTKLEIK
2. 409D4E10 mouse-human chimeric antibody (antibody, V domains shown, also called mAb112-409D4E10) VH: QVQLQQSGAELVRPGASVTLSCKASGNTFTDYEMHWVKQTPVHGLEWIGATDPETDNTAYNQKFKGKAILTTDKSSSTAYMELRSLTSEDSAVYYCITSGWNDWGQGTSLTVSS VL: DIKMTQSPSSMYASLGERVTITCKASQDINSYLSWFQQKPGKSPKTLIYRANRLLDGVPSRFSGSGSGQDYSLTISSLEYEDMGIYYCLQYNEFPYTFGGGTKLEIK
3. 405B8H3 mouse-human chimeric antibody (antibody, V domains shown, also called mAb103-405B8H3) VH: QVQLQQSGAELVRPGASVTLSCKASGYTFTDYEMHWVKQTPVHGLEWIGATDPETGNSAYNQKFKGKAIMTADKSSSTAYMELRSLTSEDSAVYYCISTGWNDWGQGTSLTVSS VL: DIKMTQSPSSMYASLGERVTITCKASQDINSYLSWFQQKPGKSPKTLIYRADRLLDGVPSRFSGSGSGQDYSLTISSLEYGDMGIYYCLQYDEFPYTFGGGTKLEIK
4. 556F6B8 mouse-human chimeric antibody (antibody, V domains shown, also called mAb123-556F6B8; 556F8B8) VH: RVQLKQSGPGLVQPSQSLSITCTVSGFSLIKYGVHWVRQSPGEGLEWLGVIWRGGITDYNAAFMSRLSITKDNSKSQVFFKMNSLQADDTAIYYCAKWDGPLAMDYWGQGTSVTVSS VL: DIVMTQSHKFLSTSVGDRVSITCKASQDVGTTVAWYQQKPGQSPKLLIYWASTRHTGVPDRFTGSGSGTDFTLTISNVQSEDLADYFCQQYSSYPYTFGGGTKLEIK
5. 105F1E10 mouse-human chimeric antibody (antibody, V domains shown, also called mAb009-105F1E10) VH: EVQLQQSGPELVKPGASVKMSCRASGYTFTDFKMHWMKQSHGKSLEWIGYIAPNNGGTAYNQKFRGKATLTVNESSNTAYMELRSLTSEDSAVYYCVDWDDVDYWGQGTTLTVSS VL: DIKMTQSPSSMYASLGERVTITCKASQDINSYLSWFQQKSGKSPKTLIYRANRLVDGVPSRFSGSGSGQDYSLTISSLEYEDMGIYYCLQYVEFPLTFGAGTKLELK

Result:
[1720, 1250, 1880, 1430, 1720]
